assay: Single-dose pharmacokinetics of T+Ai pellet implant (80 mg testosterone + 4 mg anastrozole, subcutaneous); conditions: human, in vivo, sc, 80 mg, Measured serum testosterone, median, 2 h post-dose
READOUT LABEL: concentration at 2 h (ng/mL)
All answers are understood in ng/mL, so give the number only.

Please give measured concentration at 2 h of the following entry: "C[C@]12CC[C@H]3[C@@H](CCC4=CC(=O)CC[C@@]43C)[C@@H]1CC[C@@H]2O"
0.51

###

test: Single-dose pharmacokinetics of T+Ai pellet implant (80 mg testosterone + 4 mg anastrozole, subcutaneous); conditions: human, in vivo, sc, 80 mg, Measured serum testosterone, GeoMean, geometric mean, 1 h post-dose
READOUT LABEL: concentration at 1 h
A complete answer gives the number followed by the unit.

Please give measured concentration at 1 h of the following entry: "C[C@]12CC[C@H]3[C@@H](CCC4=CC(=O)CC[C@@]43C)[C@@H]1CC[C@@H]2O"
0.49 ng/mL

###

test: Single-dose pharmacokinetics of T+Ai pellet implant (80 mg testosterone + 4 mg anastrozole, subcutaneous); details: human, in vivo, sc, 4 mg, Measured serum anastrozole, GeoMean, geometric mean, 168 h post-dose
READOUT LABEL: concentration at 168 h (ng/mL)
All answers are understood in ng/mL, so give the number only.

Please give measured concentration at 168 h of the following entry: "CC(C)(C#N)c1cc(Cn2cncn2)cc(C(C)(C)C#N)c1"
3.5

###

experiment: Single-dose pharmacokinetics of T+Ai pellet implant (80 mg testosterone + 4 mg anastrozole, subcutaneous); conditions: human, in vivo, sc, 4 mg, Measured serum anastrozole, mean, 1680 h post-dose
READOUT LABEL: concentration at 1680 h

Please give measured concentration at 1680 h of the following entry: "CC(C)(C#N)c1cc(Cn2cncn2)cc(C(C)(C)C#N)c1"
0.1 ng/mL

###

assay: Single-dose pharmacokinetics of T+Ai pellet implant (80 mg testosterone + 4 mg anastrozole, subcutaneous); conditions: human, in vivo, sc, 80 mg, Measured serum testosterone, mean, 12 h post-dose
READOUT LABEL: concentration at 12 h (ng/mL)
All answers are understood in ng/mL, so give the number only.

Please give measured concentration at 12 h of the following entry: "C[C@]12CC[C@H]3[C@@H](CCC4=CC(=O)CC[C@@]43C)[C@@H]1CC[C@@H]2O"
3.43

###

assay: Single-dose pharmacokinetics of T+Ai pellet implant (80 mg testosterone + 4 mg anastrozole, subcutaneous); conditions: human, in vivo, sc, 4 mg, Measured serum anastrozole, mean, 48 h post-dose
READOUT LABEL: concentration at 48 h

Please give measured concentration at 48 h of the following entry: "CC(C)(C#N)c1cc(Cn2cncn2)cc(C(C)(C)C#N)c1"
5.06 ng/mL

###

Test: Single-dose pharmacokinetics of T+Ai pellet implant (80 mg testosterone + 4 mg anastrozole, subcutaneous)
Details: human, in vivo, sc, 4 mg, Measured serum anastrozole, mean, 2 h post-dose
Description: The premenopausal women were aged between 35 and 55 years of age with a BMI range of 20-30 kg/m^2. […] The implant was intended to be left in situ and was expected to be almost completely absorbed within three months following insertion. […] (NB: the sample collection time point at 6 hours post-dose was added for the third and subsequent subject and so serum measurements were not determined for the first two subjects as noted below). […]
READOUT LABEL: concentration at 2 h
A complete answer gives the number followed by the unit.

Please give measured concentration at 2 h of the following entry: "CC(C)(C#N)c1cc(Cn2cncn2)cc(C(C)(C)C#N)c1"
0.7 ng/mL

###

Assay: Single-dose pharmacokinetics of T+Ai pellet implant (80 mg testosterone + 4 mg anastrozole, subcutaneous)
Details: human, in vivo, sc, 80 mg, Measured serum testosterone, GeoMean, geometric mean, 72 h post-dose
Experimental: The premenopausal women were aged between 35 and 55 years of age with a BMI range of 20-30 kg/m^2. […] The implant was intended to be left in situ and was expected to be almost completely absorbed within three months following insertion. […] (NB: the sample collection time point at 6 hours post-dose was added for the third and subsequent subject and so serum measurements were not determined for the first two subjects as noted below). […]
READOUT LABEL: concentration at 72 h (ng/mL)
All answers are understood in ng/mL, so give the number only.

Please give measured concentration at 72 h of the following entry: C[C@]12CC[C@H]3[C@@H](CCC4=CC(=O)CC[C@@]43C)[C@@H]1CC[C@@H]2O [Testosterone, testosterone]
1.63

###

assay: Single-dose pharmacokinetics of T+Ai pellet implant (80 mg testosterone + 4 mg anastrozole, subcutaneous); conditions: human, in vivo, sc, 4 mg, Measured serum anastrozole, GeoMean, geometric mean, 8 h post-dose
READOUT LABEL: concentration at 8 h (ng/mL)
All answers are understood in ng/mL, so give the number only.

Please give measured concentration at 8 h of the following entry: "CC(C)(C#N)c1cc(Cn2cncn2)cc(C(C)(C)C#N)c1"
3.23

###

assay: Single-dose pharmacokinetics of T+Ai pellet implant (80 mg testosterone + 4 mg anastrozole, subcutaneous); settings: human, in vivo, sc, 4 mg, Measured serum anastrozole, median, 1 h post-dose
READOUT LABEL: concentration at 1 h (ng/mL)
All answers are understood in ng/mL, so give the number only.

Please give measured concentration at 1 h of the following entry: CC(C)(C#N)c1cc(Cn2cncn2)cc(C(C)(C)C#N)c1 [Anastrozole]
0.32

###

test: Single-dose pharmacokinetics of T+Ai pellet implant (80 mg testosterone + 4 mg anastrozole, subcutaneous); conditions: human, in vivo, sc, 4 mg, Measured serum anastrozole, GeoMean, geometric mean, 48 h post-dose
READOUT LABEL: concentration at 48 h (ng/mL)
All answers are understood in ng/mL, so give the number only.

Please give measured concentration at 48 h of the following entry: "CC(C)(C#N)c1cc(Cn2cncn2)cc(C(C)(C)C#N)c1"
4.98

###

experiment: Single-dose pharmacokinetics of T+Ai pellet implant (80 mg testosterone + 4 mg anastrozole, subcutaneous); details: human, in vivo, sc, 4 mg, Measured serum anastrozole, individual subject, 72 h post-dose
READOUT LABEL: concentration at 72 h
A complete answer gives the number followed by the unit.

Please give measured concentration at 72 h of the following entry: "CC(C)(C#N)c1cc(Cn2cncn2)cc(C(C)(C)C#N)c1"
4.94 ng/mL

###

test: Single-dose pharmacokinetics of T+Ai pellet implant (80 mg testosterone + 4 mg anastrozole, subcutaneous); conditions: human, in vivo, sc, 80 mg, Measured serum testosterone, median, 1 h post-dose
READOUT LABEL: concentration at 1 h (ng/mL)
All answers are understood in ng/mL, so give the number only.

Please give measured concentration at 1 h of the following entry: "C[C@]12CC[C@H]3[C@@H](CCC4=CC(=O)CC[C@@]43C)[C@@H]1CC[C@@H]2O"
0.47

###

test: Single-dose pharmacokinetics of T+Ai pellet implant (80 mg testosterone + 4 mg anastrozole, subcutaneous); conditions: human, in vivo, sc, 80 mg, Measured serum testosterone, median, 4 h post-dose
READOUT LABEL: concentration at 4 h (ng/mL)
All answers are understood in ng/mL, so give the number only.

Please give measured concentration at 4 h of the following entry: "C[C@]12CC[C@H]3[C@@H](CCC4=CC(=O)CC[C@@]43C)[C@@H]1CC[C@@H]2O"
0.92

###

Experiment: Single-dose pharmacokinetics of T+Ai pellet implant (80 mg testosterone + 4 mg anastrozole, subcutaneous)
Conditions: human, in vivo, sc, 4 mg, Measured serum anastrozole, median, 48 h post-dose
Description: The premenopausal women were aged between 35 and 55 years of age with a BMI range of 20-30 kg/m^2. […] The implant was intended to be left in situ and was expected to be almost completely absorbed within three months following insertion. […] (NB: the sample collection time point at 6 hours post-dose was added for the third and subsequent subject and so serum measurements were not determined for the first two subjects as noted below). […]
READOUT LABEL: concentration at 48 h (ng/mL)
All answers are understood in ng/mL, so give the number only.

Please give measured concentration at 48 h of the following entry: "CC(C)(C#N)c1cc(Cn2cncn2)cc(C(C)(C)C#N)c1"
5.05

###

assay: Single-dose pharmacokinetics of T+Ai pellet implant (80 mg testosterone + 4 mg anastrozole, subcutaneous); settings: human, in vivo, sc, 80 mg, Measured serum testosterone, GeoMean, geometric mean, 1680 h post-dose
READOUT LABEL: concentration at 1680 h (ng/mL)
All answers are understood in ng/mL, so give the number only.

Please give measured concentration at 1680 h of the following entry: C[C@]12CC[C@H]3[C@@H](CCC4=CC(=O)CC[C@@]43C)[C@@H]1CC[C@@H]2O [Testosterone, testosterone]
0.99
